# test_protocol: Cycloheximide Counterscreen for Small Molecule Inhibitors of Shiga Toxin; also: read at 38.3 µM for the half of the compounds with a filed dose; 0% is about no effect
# stated_conditions: cell reporter, cycloheximide protein synthesis inhibition counterscreen; stronger effect = higher value
Among all 300,000 compounds or so, about 37,000 (12%) were called active. This is one part of a sample in which actives are shown more often than they occur.
measured_endpoint: max response (%)
// note: answer is a bare numeric in %

Sample records with max response:
>>> recorded_number("CC(C)N1C(=O)C2C(C(=O)NC3CCCCC3)C3C=CC2(O3)C1C(=O)NC1CCCC1 (stereo not given)")
-1.06
>>> recorded_number("CCOc1ccc(CCNC(=O)C(CC)n2nc(C)n3c(cc4sccc43)c2=O)cc1OCC (stereo not given)")
-1.8
>>> recorded_number("Oc1ccc(C2Nc3cccc4cccc(c34)N2)cc1")
-1.27
>>> recorded_number("O=C(Cc1ccccc1)Nc1ccc(C(=O)Nc2ccccc2C(=O)O)cc1")
-2.41
>>> recorded_number("CCOC(=O)C1(CC2CCCCO2)CCN(Cc2nc(-c3cccs3)oc2C)CC1 (stereo not given)")
-1.4
>>> recorded_number("CCOc1ccc2c(c1)c(=O)c(S(=O)(=O)c1ccc(C)cc1)cn2CC")
-0.573
>>> recorded_number("COc1cccc(-c2nn(-c3ccccc3)cc2/C=C(\\C#N)C(=O)NCCCn2ccnc2)c1")
10.5
>>> recorded_number("CCCc1nc2scc(-c3ccc(C)cc3)c2c(=O)n1N")
25.8

The molecule listed as O=C(Nc1ccccc1F)C1C2C=CC3(O2)C1C(=O)N(c1cccnc1)C3C(=O)NC1CCCCC1 (stereo not given) shows max response equal to 41.8

The molecule listed as CCCCC(CC)CNC(=O)C(=O)C1C(=O)Nc2ccccc21 (stereo not given) shows max response equal to 15.4

###

# test_protocol: Cycloheximide Counterscreen for Small Molecule Inhibitors of Shiga Toxin; also: read at 38.3 µM for the half of the compounds with a filed dose; 0% is about no effect
# stated_conditions: cell reporter, cycloheximide protein synthesis inhibition counterscreen
Out of some 300,000 compounds screened, about 37,000 (12%) were called active. Cut-off read from the data, not from the text of the source: active = max response mostly above about 13% (no sharp cut-off); inactive = mostly below about 14%. What follows is part of a selection rich in actives, with near analogues and random picks from the rest.
Hello, when you answer, please use one of the following outcomes: active, inactive

Observe how each entry below is paired with its result.
>>> qualitative_label("O=C(COC(=O)CCc1nc2ccccc2c(=O)[nH]1)Nc1ccc(N2CCOCC2)cc1")
"inactive"
>>> qualitative_label("O=S(=O)(c1cccc(S(=O)(=O)N2CCC(n3nnc4ccccc43)CC2)c1)N1CCCCC1")
"inactive"
>>> qualitative_label("O=C(CCc1nc2ccccc2c(=O)[nH]1)OCC(=O)c1cccc(Cl)c1")
"inactive"
>>> qualitative_label("COc1ccccc1C(=O)COC(=O)CNS(=O)(=O)c1ccc(NC(C)=O)cc1")
"inactive"
>>> qualitative_label("Cc1nn(Cc2ccccc2)c(C)c1NS(=O)(=O)c1ccccc1")
"inactive"
>>> qualitative_label("CC(=O)c1cccc(S(=O)(=O)N2CCC(n3nnc4cc(F)ccc43)CC2)c1")
"inactive"

## Task Just curious, what result did CCCS(=O)(=O)N1CCC(CCOc2ccccc2)(C(=O)OCC)CC1 get here?
## Result inactive

## Task Just curious, what result did O=C(NNC(=O)C1CCN(c2ncccn2)CC1)c1ccccc1 get here?
## Result inactive

## Task Just curious, what result did Cc1cc(-c2ccccc2)nc(N2CCC(C(=O)NC34CC5CC(CC(C5)C3)C4)CC2)n1 get here?
## Result active

## Task Just curious, what result did CCc1cccc(NC(=O)CCCN2C(=O)C(c3ccccc3)Oc3cccnc32)c1 (stereo not given) get here?
## Result inactive

Reference source for all entries: PubChem BioAssay AID2314
